EXPERIMENT: Solubility in PBS
Type: physicochemical
TEST_SETTINGS: Solubility (uM)
READOUT_KIND: Solubility

Task: Entry under review: CC(=O)N1CCC[C@]12CC=CCCCC1(CCCC=CCCCOC(=O)N3CC[C@@](C(=O)N[C@@H](Cc4ccccc4F)C(=O)N[C@@H](Cc4csc5ccccc45)C(=O)N[C@@H](CCC(N)=O)C(N)=O)(C3)NC(=O)[C@H](Cc3ccccc3)NC(=O)[C@H](Cc3ccccc3)NC(=O)[C@H](C)NC(=O)[C@H](C)NC(=O)[C@H](CC(=O)O)NC(=O)[C@H](CC(=O)O)NC1=O)NC(=O)[C@H](CC(C)(C)C)NC(=O)[C@H](CC(=O)O)NC2=O (some centres unmarked) . Reported Solubility?
Result: 33 µM

Task: // same read-out, input: CC(=O)N1CCC[C@]12CC=CCCCC1(CCCC=CCCCCCC[C@@](C)(C(=O)N[C@@H](Cc3ccccc3)C(=O)N[C@@H](Cc3csc4ccccc34)C(=O)N[C@@H](Cc3c[nH]cn3)C(=O)N[C@@H](C)C(N)=O)NC(=O)[C@H](CC(N)=O)NC(=O)[C@H](Cc3ccccc3)NC(=O)[C@H](C)NC(=O)[C@H](C)NC(=O)[C@H](CCC(=O)O)NC(=O)[C@H](CC(=O)O)NC1=O)NC(=O)[C@H](CC(C)C)NC(=O)[C@H](CC(=O)O)NC2=O (some centres unmarked)
Result: 41 µM

Task: // same read-out, input: CC(=O)N1CCC[C@]12CC=CCCCC1(CCCC=CCCCOC(=O)N3CC[C@@](C(=O)N[C@@H](Cc4ccsc4)C(=O)N[C@@H](Cc4csc5ccccc45)C(=O)N[C@@H](CCC(N)=O)C(=O)N[C@@H](CCCCNC(=O)c4ccc(CN5CCN(C)CC5)cc4)C(N)=O)(C3)NC(=O)[C@H](CC(N)=O)NC(=O)[C@H](Cc3ccccc3)NC(=O)[C@H](C)NC(=O)[C@H](C)NC(=O)[C@H](CC(=O)O)NC(=O)[C@H](CC(=O)O)NC1=O)NC(=O)[C@H](CC(C)(C)C)NC(=O)[C@H](CC(=O)O)NC2=O (some centres unmarked)
Result: 44 µM

Task: // same read-out, input: CC[C@H](C)[C@@H]1NC(=O)[C@H](CC(=O)O)NC(=O)[C@]2(CC=CCCCC3(CCCC=CCCCCCC[C@@](C)(C(=O)N[C@@H](Cc4ccccc4)C(=O)N[C@@H](Cc4csc5ccccc45)C(=O)N[C@@H](Cc4ccccc4)C(N)=O)NC(=O)[C@H](CCC(N)=O)NC(=O)[C@H](Cc4ccccc4)NC(=O)[C@H](C)NC(=O)[C@H](C)NC(=O)[C@H](CCC(=O)O)NC(=O)[C@H](CC(=O)O)NC3=O)NC1=O)CCCN2C(C)=O (some centres unmarked)
Result: 43 µM

Task: // same read-out, input: CC(=O)N1CCC[C@]12CC=CCCCC1(CCCC=CCCCOC(=O)N3CC[C@@](C(=O)N[C@@H](Cc4ccccc4Cl)C(=O)N[C@@H](Cc4csc5ccccc45)C(=O)N[C@@H](CCC(N)=O)C(N)=O)(C3)NC(=O)[C@H](CCCCNC(C)C)NC(=O)[C@H](Cc3ccccc3)NC(=O)[C@H](C)NC(=O)[C@H](C)NC(=O)[C@H](CC(=O)O)NC(=O)[C@H](CC(=O)O)NC1=O)NC(=O)[C@H](CC(C)(C)C)NC(=O)[C@H](CC(=O)O)NC2=O (some centres unmarked)
Result: 25 µM

----------
I'd appreciate it if you could supply IC50 values for the items below.
EXPERIMENTAL_TARGET: beta-catenin/TCF4 engagement (Homo sapiens)
Construct: expressed in transfected cells; host or cells: HEK293
EXPERIMENT: Nano-BRET target engagement assay (B-cat-Halo & TCF4-Luc in HEK293 cells)
Format: cell-based
TEST_SETTINGS: read-out: NanoBRET IC50
Give just the number in µM; leave the unit off.

Task: Entry under review: CC(=O)N1CCC[C@]12CC=CCCCC1(CCCC=CCCCOC(=O)N3CC[C@@](C(=O)N[C@@H](Cc4ccsc4)C(=O)N[C@@H](Cc4csc5ccccc45)C(=O)N[C@@H](CCC(N)=O)C(N)=O)(C3)NC(=O)[C@H](CCO)NC(=O)[C@H](Cc3ccccc3)NC(=O)[C@H](C)NC(=O)[C@H](C)NC(=O)[C@H](CC(=O)O)NC(=O)[C@H](CC(=O)O)NC1=O)NC(=O)[C@H](CC(C)(C)C)NC(=O)[C@H](CC(=O)O)NC2=O (stereo partly drawn) [I-803] . Reported IC50?
Result: 9

Task: // same read-out, input: CC(=O)N1CCC[C@]12CC=CCCCC1(CCCC=CCCCOC(=O)N3CC[C@@](C(=O)N[C@@H](Cc4ccsc4)C(=O)N[C@@H](Cc4csc5ccccc45)C(=O)N[C@@H](CCC(N)=O)C(N)=O)(C3)NC(=O)[C@H](CC(C)C)NC(=O)[C@H](Cc3ccccc3)NC(=O)[C@H](C)NC(=O)[C@H](C)NC(=O)[C@H](Cc3ccccc3C(=O)O)NC(=O)[C@H](CC(=O)O)NC1=O)NC(=O)[C@H](CC(C)(C)C)NC(=O)[C@H](CC(=O)O)NC2=O (stereo partly drawn) [I-854]
Result: 4.6

----------
I'd appreciate it if you could supply pIC50 values for the items below.
EXPERIMENTAL_TARGET: full-length beta-Catenin (Uniprot ID P35222) (Homo sapiens)
Construct: 10 nM full-length beta-Catenin (Uniprot ID P35222)
Sequence (P35222 whole entry): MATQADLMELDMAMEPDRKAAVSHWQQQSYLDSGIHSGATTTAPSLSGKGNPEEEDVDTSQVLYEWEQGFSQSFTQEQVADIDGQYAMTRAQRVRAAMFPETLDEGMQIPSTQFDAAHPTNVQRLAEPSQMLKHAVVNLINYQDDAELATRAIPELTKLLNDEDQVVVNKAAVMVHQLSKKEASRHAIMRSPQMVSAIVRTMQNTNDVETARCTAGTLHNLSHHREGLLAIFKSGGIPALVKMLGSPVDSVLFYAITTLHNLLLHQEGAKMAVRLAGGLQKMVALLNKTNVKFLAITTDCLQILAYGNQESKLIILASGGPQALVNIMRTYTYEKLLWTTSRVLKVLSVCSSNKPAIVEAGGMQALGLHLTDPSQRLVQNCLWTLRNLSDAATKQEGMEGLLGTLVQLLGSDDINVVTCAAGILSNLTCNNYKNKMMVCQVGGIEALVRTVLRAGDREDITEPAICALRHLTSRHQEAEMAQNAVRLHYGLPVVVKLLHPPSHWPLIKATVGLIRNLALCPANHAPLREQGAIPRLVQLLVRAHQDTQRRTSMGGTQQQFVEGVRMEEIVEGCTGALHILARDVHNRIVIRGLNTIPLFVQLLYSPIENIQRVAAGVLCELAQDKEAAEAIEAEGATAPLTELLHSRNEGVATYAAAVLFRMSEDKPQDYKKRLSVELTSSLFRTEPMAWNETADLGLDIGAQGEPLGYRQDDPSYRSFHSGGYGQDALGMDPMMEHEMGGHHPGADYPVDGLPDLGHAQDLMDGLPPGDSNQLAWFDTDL
EXPERIMENT: Fluorescence polarization IC50 (beta-catenin / 5FAM-TCF4 10-53 competition)
Assay type: binding
TEST_SETTINGS: fluorescence polarization; read-out: beta-Catenin FP IC50
# log scale: pIC50 equals minus log10 of the concentration in mol/L

Task: Entry under review: C[C@@H]1NC(=O)[C@H](C)NC(=O)[C@H](CC(=O)O)NC(=O)[C@H](CC(=O)O)NC(=O)C2(CCCC=CCCCOC(=O)N3CC[C@@](C(=O)N[C@@H](Cc4ccsc4)C(=O)N[C@@H](Cc4csc5ccccc45)C(=O)N[C@@H](CCC(N)=O)C(N)=O)(C3)NC(=O)[C@H](CC(N)=O)NC(=O)[C@H](Cc3ccccc3)NC1=O)CCCC=CCCC(=O)OC1CC(C(=O)N[C@@H](CC(=O)O)C(=O)N[C@@H](CC(C)(C)C)C(=O)N2)N(S(C)(=O)=O)C1 (stereo partly drawn) . Reported pIC50?
Result: 7.82

Task: // same read-out, input: CC(=O)N1CCC[C@]12CC=CCCCC1(CCCC=CCCCOC(=O)N3CC[C@@](C(=O)N[C@@H](Cc4ccsc4)C(=O)N[C@@H](Cc4csc5ccccc45)C(=O)N[C@H](CO)[C@@H](C)O)(C3)NC(=O)[C@H](Cc3ccc(C(F)(F)F)cc3)NC(=O)[C@H](Cc3ccccc3)NC(=O)[C@H](C)NC(=O)[C@H](C)NC(=O)[C@H](CC(=O)O)NC(=O)[C@H](CC(=O)O)NC1=O)NC(=O)[C@H](CC(C)(C)C)NC(=O)[C@H](CC(=O)O)NC2=O (stereo partly drawn)
Result: 7.54

Task: // same read-out, input: CC(=O)N1CCC[C@]12CC=CCCCC1(CCCC=CCOC(=O)N(C)CC[C@@](C)(C(=O)N[C@@H](Cc3ccsc3)C(=O)N[C@@H](Cc3csc4ccccc34)C(=O)N[C@@H](CCC(N)=O)C(N)=O)NC(=O)[C@H](CC(N)=O)NC(=O)[C@H](Cc3ccccc3)NC(=O)[C@H](C)NC(=O)[C@H](C)NC(=O)[C@H](CC(=O)O)NC(=O)[C@H](CC(=O)O)NC1=O)NC(=O)[C@H](CC(C)(C)C)NC(=O)[C@H](CC(=O)O)NC2=O (stereo partly drawn)
Result: 6.18

Task: // same read-out, input: CC(=O)N1CCC[C@]12CC=CCCCC1(CCCC=CCCCCCC[C@@](C)(C(=O)N[C@@H](Cc3ccccc3)C(=O)N[C@@H](Cc3csc4ccccc34)C(N)=O)NC(=O)[C@H](CCCNC(N)=O)NC(=O)[C@H](Cc3ccccc3)NC(=O)[C@H](C)NC(=O)[C@H](C)NC(=O)[C@H](CCC(=O)O)NC(=O)[C@H](CC(=O)O)NC1=O)NC(=O)[C@H](CC(C)C)NC(=O)[C@H](CC(=O)O)NC2=O (stereo partly drawn) [I-628]
Result: 7.22

Task: // same read-out, input: CC(=O)N1CCC[C@]12CC=CCCCC1(CCCC=CCCCOC(=O)N3CC[C@@](C(=O)N[C@@H](Cc4ccccc4Cl)C(=O)N[C@@H](Cc4cccc5ccccc45)C(=O)N[C@@H](CCC(N)=O)C(N)=O)(C3)NC(=O)[C@H](CC(C)C)NC(=O)[C@H](Cc3ccccc3)NC(=O)[C@H](C)NC(=O)[C@H](C)NC(=O)[C@H](CC(=O)O)NC(=O)[C@H](CC(=O)O)NC1=O)NC(=O)[C@H](CC(C)(C)C)NC(=O)[C@H](CC(=O)O)NC2=O (stereo partly drawn)
Result: 7.16

Task: // same read-out, input: CC(=O)N1CCC[C@]12CC=CCCCC1(CCCC=CCCCOC(=O)N3CC[C@@](C(=O)N[C@@H](Cc4ccsc4)C(=O)N[C@@H](Cc4csc5ccccc45)C(=O)N[C@@H](CCC(N)=O)C(N)=O)(C3)NC(=O)[C@H](CC(C)C)NC(=O)[C@H](Cc3ccccc3)NC(=O)[C@H](C)NC(=O)[C@H](C)NC(=O)[C@H](CCN(CC(=O)O)C(=O)CN3CCOCC3)NC(=O)[C@H](CC(=O)O)NC1=O)NC(=O)[C@H](CC(C)(C)C)NC(=O)[C@H](CC(=O)O)NC2=O (stereo partly drawn)
Result: 7.85

Task: // same read-out, input: CC(=O)N1CCC[C@]12CC=CCCCC1(CCCC=CCCCOC(=O)N3CC[C@@](C(=O)N[C@@H](Cc4ccccc4C(F)(F)F)C(=O)N[C@@H](Cc4ccc(C)c(C)c4)C(=O)N[C@@H](CO)C(N)=O)(C3)NC(=O)[C@H](CC(C)C)NC(=O)[C@H](Cc3ccccc3)NC(=O)[C@H](C)NC(=O)[C@H](C)NC(=O)[C@H](Cc3cccc(C(=O)O)c3)NC(=O)[C@H](CC(=O)O)NC1=O)NC(=O)[C@H](CC(C)(C)C)NC(=O)[C@H](CC(=O)O)NC2=O (stereo partly drawn)
Result: 7.82

Task: // same read-out, input: CC(=O)N1CCC[C@]12CC=CCCCC1(CCCC=CCCCOC(=O)N3CC[C@@](C(=O)N[C@@H](Cc4ccsc4)C(=O)N[C@@H](Cc4cccc(Br)c4)C(=O)N[C@@H](CCC(N)=O)C(N)=O)(C3)NC(=O)[C@H](CC(C)C)NC(=O)[C@H](Cc3ccccc3)NC(=O)[C@H](C)NC(=O)[C@H](C)NC(=O)[C@H](Cc3cccc(C(=O)O)c3)NC(=O)[C@H](CC(=O)O)NC1=O)NC(=O)[C@H](CC(C)(C)C)NC(=O)[C@H](CC(=O)O)NC2=O (stereo partly drawn)
Result: 7.80

Task: // same read-out, input: CC[C@H](C)[C@@H]1NC(=O)[C@H](CC(=O)O)NC(=O)[C@]2(CC=CCCCC3(CCCC=CCCCCCC[C@@](C)(C(=O)N[C@@H](Cc4ccccc4)C(=O)N[C@@H](Cc4csc5ccccc45)C(=O)N[C@@H](CCC(N)=O)C(N)=O)NC(=O)[C@H](CCC(N)=O)NC(=O)[C@H](Cc4ccccc4)NC(=O)[C@H](C)NC(=O)[C@H](C)NC(=O)[C@H](CCC(=O)O)NC(=O)C[C@@H](CC(=O)O)NC3=O)NC1=O)CCCN2C(C)=O (stereo partly drawn)
Result: 5.30
